Target: OTU domain-containing protein 3 (Homo sapiens) (UniProt Q5T2D3)
Sequence (Q5T2D3 whole entry, looked up, the tested form may be a part): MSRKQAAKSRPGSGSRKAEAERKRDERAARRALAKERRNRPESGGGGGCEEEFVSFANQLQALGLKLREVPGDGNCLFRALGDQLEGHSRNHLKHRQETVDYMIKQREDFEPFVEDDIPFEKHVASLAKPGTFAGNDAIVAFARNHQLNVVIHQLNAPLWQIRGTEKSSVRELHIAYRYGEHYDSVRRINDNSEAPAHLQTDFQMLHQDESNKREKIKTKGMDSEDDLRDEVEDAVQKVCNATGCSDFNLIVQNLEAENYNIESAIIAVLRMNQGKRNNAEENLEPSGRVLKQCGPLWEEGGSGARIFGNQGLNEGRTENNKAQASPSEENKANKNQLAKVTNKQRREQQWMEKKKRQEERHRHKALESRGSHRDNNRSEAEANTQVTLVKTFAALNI
Assay: blocks human OTUD3 ubiquitin-rhodamine cleavage (AID 1645858)
Settings: purified OTUD3, Ub-rhodamine fluorescence, 2 h; at 25 µM; active compounds read high
Among all 47,000 compounds or so, about 330 (0.7%) were called active. For the sample, actives were picked, then their nearest neighbours and some compounds at random.
measurement-kind: inhibition

The following compounds have reported results that may help.
compound	inhibition
Cc1nccc(N2CCC(Cc3cncc(-c4cnc(C)n4C)n3)C2)n1 (stereo not given)	3.33% (inactive)
O=C(Cc1c(Cl)cccc1Cl)NCc1cccc(C(F)(F)F)c1	4.26% (inactive)
Cc1ccc(S(=O)(=O)N2CCC3(CC2)OC(C(=O)NCC(C)C)Cn2ccnc23)cc1 (stereo not given)	-3.62% (inactive)

Dear reader, for each entry below, please note its inhibition.
1. COc1ccc(-c2ccc(CCC(=O)NCc3ccccc3)o2)cc1
2. Cc1ccc(S(=O)(=O)NCCc2nnc3ccc(SCC(=O)NCc4ccc5c(c4)OCO5)nn23)cc1
3. O=C(c1ccncc1)N1CC[C@@H]2CN(Cc3cccc(Cl)c3)S(=O)(=O)[C@@H]2CC1
4. CCN1C[C@@]23CN(C(=O)c4cccc(Cl)c4)C[C@@H](C[C@@H]2S1(=O)=O)O3

Solution:
1. 0.714% (inactive)
2. 11.1% (inactive)
3. 2.12% (inactive)
4. 11.4% (inactive)

====

Biological target: OTU domain-containing protein 3 (Homo sapiens) (UniProt Q5T2D3)
Assay: blocks human OTUD3 ubiquitin-rhodamine cleavage (AID 1645858)
Details: purified OTUD3, Ub-rhodamine fluorescence, 2 h; at 25 µM; active compounds read high
About 330 (0.7%) of roughly 47,000 compounds were called active. The list comes from a sample in which actives are over-represented; it also holds close analogues and randomly drawn compounds.
measurement-kind: inhibition (%)
Numbers only, in %.

Guide cases for inhibition, answers given:
compound	inhibition [%]
O=c1c(NCCCc2ccccc2)nccn1-c1ccc2c(c1)OCCO2	-4.73
NC(=O)c1ccc(NC(=O)Cc2cc(-c3ccc(Cl)cc3)on2)cc1	-10.7
COc1cccc(NC(=O)C2Cc3ccccc3N2C(=O)c2ccccc2)c1 (stereo not given)	12

Please give inhibition, item by item, for the list that follows.
1. Cc1ccc(S(=O)(=O)c2cnc3ccccc3c2N2CCC3(CC2)OCCO3)cc1
2. O=C(NCc1cccnc1)C1CCN(c2cnc(N3CCCCCC3)nc2)CC1
3. CCOc1ccc(S(=O)(=O)N2CCCC2c2ccco2)cc1 (stereo not given)
4. CC(=O)c1sc(NC(=O)c2ccc(S(=O)(=O)N3CC(C)CC(C)C3)cc2)nc1C (stereo not given)
5. Clc1ccc2[nH]c3c(ccc4c5cc(Cl)ccc5[nH]c43)c2c1
6. COc1cccc(CN2C[C@@]34CN(C(=O)C5CCC5)C[C@@H](C[C@@H]3S2(=O)=O)O4)c1

Solution:
[1.24, -16.6, -0.738, 4.19, 3.62, 9.25]

Problem: Can you share its inhibition? I mean this compound: `CS(=O)(=O)c1ccc(C(=O)Nc2ccccc2-c2ccccc2)cc1`
Solution: 11.2

====

Biological target: OTU domain-containing protein 3 (Homo sapiens)
Test: blocks human OTUD3 ubiquitin-rhodamine cleavage (AID 1645858)
Conditions: purified OTUD3, Ub-rhodamine fluorescence, 2 h; at 25 µM; active compounds read high
Screen size: about 47,000 compounds; about 330 (0.7%) were called active. Many of the other results were omitted from the sample, so actives are more common in it than they were.
Hi, to clarify the labels: satisfied covers inhibition from 20% upward, not satisfied covers anything below 20%.

CCCCCCSc1ncnc2c1sc1nc(-c3ccccc3)c3c(c12)CC(C)(C)OC3 not satisfied
O[C@H]1[C@H](NCc2cnc3ccccc3c2)[C@@H](c2cncnc2)C[C@H]1O not satisfied
NC(=O)CC[C@H](NC(=O)[C@@H]1CCCN1C(=O)[C@H](Cc1ccccc1)n1c(=O)[nH]c2ccccc2c1=O)C(=O)O not satisfied
O=C(O)CC1(CC(=O)Nc2ccc(Oc3ccccc3)cc2)CCCC1 not satisfied
N#Cc1cccc(S(=O)(=O)c2c[nH]c3ccc(Cl)cc3c2=O)c1 not satisfied

Alright, here's another molecule for you.
Problem: Check this molecule for inhibition at or above 20%: `Oc1cccc2nc3c(O)cccc3nc12`
Solution: satisfied

====

Kindly supply the reported inhibition values for the records listed here.
Target: OTU domain-containing protein 3 (Homo sapiens)
Experiment: blocks human OTUD3 ubiquitin-rhodamine cleavage (AID 1645858)
Conditions: purified OTUD3, Ub-rhodamine fluorescence, 2 h; at 25 µM; active compounds read high
The whole screen tested about 47,000 compounds, of which about 330 (0.7%) were called active. The entries come from a sample that favours actives as a whole.
Give bare numbers, in %.

Past entries and their recorded results:
molecule	inhibition / %
O=C(NCc1ccc(F)cc1)C1CCc2nc(N3CCCCC3)ncc2C1 (stereo not drawn)	1.53
CCNC(=O)CCc1nc2c(C)nn(-c3ccccc3)c2n(CC)c1=O	9.41

Now examine the next entry.
Problem: Item C=C1CCC2[C@](C)(CCC[C@]2(C)C(=O)OC)[C@H]1CCc1ccoc1C[N+](C)(C)Cc1ccccc1 (stereo partly drawn) has what recorded inhibition?
Solution: 22.7
